Test: FRG1 expression reporter modulators in myotubes – cell-based, C2C12 myotubes, firefly/Renilla luciferase, luminescence, FRG1 inhibition for FSHD, primary screen (AID 1084)
Settings: FRG1 promoter luciferase, higher = more signal, called active from +8 up or from −8 down
The source made the active and inactive calls.
measured_parameter: z-score

Examples with their reported z-score follow.
1) CO[C@H]1O[C@H](CO)[C@@H](OC(=O)Nc2ccccc2)[C@H](OC(=O)Nc2ccccc2)[C@H]1OC(=O)Nc1ccccc1    0.921 (inactive)
2) C=CCN1C(=O)[C@]2(O[C@H](CCn3cc([C@H](O)c4ccccc4)nn3)[C@@H]([Si](C)(C)c3ccc(OC)cc3)[C@@H]2C)c2cc(NC(=O)c3ccc(OC)cc3)ccc21    -2.62 (inactive)
3) CCCCC(=C=CC[C@H](O)c1ccc(CO)o1)CCO    0.0699 (inactive)

In: Would you kindly share the measured z-score for C=CCC(OC(C)=O)[C@@H]1[C@@H](N(Cc2cc3ccccc3o2)C(=O)c2cccc3ccccc23)c2cc(OCCCO)ccc2N1C(=O)c1ccc2ccccc2n1 (some centres not stated) ?
Out: -1.53 (inactive)

In: Same read-out for C=CCC(OC(C)=O)[C@@H]1[C@@H](N(Cc2cccc3ccccc23)C(=O)c2ccc(-c3ccccc3)cc2)c2cc(OCCCO)ccc2N1C(=O)Cc1ccc2ccccc2c1 (some centres not stated) ?
Out: -0.94 (inactive)

###

Target: Follistatin (Homo sapiens)
Test: FST protein binding to printed compounds – biochemical, small-molecule microarray, 635/667 nm fluorescence, primary screen (AID 1132)
Details: 635 nm fluorescence, higher = more signal
Mark criterion met for reported composite z-score of 1 or greater; mark criterion not met for anything smaller.

# count of solved cases: 2
1. CCOC(=O)C[C@H]1[C@H](OC(=O)c2ccccc2-c2ccccc2)[C@@H](NC(=O)c2ccc3ccccc3c2)c2cc(OCCCO)ccc2N1C(=O)Cc1ccc(OC)cc1    criterion not met
2. COc1ccc([Si](C)(C)[C@H]2[C@H](CCO)O[C@@]3(C(=O)N(Cc4ccc(NC(=O)[C@H](C)O)cc4)c4ccccc43)[C@@H]2C)cc1    criterion not met

In: Confirm if composite z-score reported for the compound "COC(=O)[C@@]1(Cc2ccc(OC)cc2)[C@H]2c3cc(C(=O)N(C)C)[nH]c3C[C@H]2CN1C(=O)c1ccccc1" is 1 or above.
Out: criterion not met

In: Same read-out for "C=CCN1C(=O)[C@]2(O[C@H](CCn3cc([C@H](O)c4ccccc4)nn3)[C@@H]([Si](C)(C)c3ccc(OC)cc3)[C@@H]2C)c2cc(NC(=O)c3ccc(OC)cc3)ccc21" ?
Out: criterion met

In: Same read-out for "C=C1C(=O)C=C2CN(C(=O)c3ccccc3)[C@@](Cc3ccc(OC)cc3)(C(=O)OC)[C@@H]12" ?
Out: criterion met

In: Same read-out for "Cc1ccc(S[C@]2(C(=O)NC(C)C)CC(=O)N(C3CCCCC3)[C@@H]2c2ccc(CO)cc2I)cc1" ?
Out: criterion met

In: Same read-out for "COCCn1c(C(=O)N(C)C)cc2c1C[C@H]1CN(C(=O)c3ccccc3)[C@@](Cc3ccc(OC)cc3)(C(=O)OC)[C@@H]21" ?
Out: criterion not met

In: Same read-out for "[N-]=[N+]=Nc1ccccc1C[C@]1(C(=O)N2CCOCC2)N=C(c2ccc(OCCCO)cc2)O[C@H]1c1ccccc1N=[N+]=[N-]" ?
Out: criterion met

In: Same read-out for C=CCC(OC(C)=O)[C@@H]1[C@@H](N(Cc2cc3ccccc3o2)C(=O)Cc2ccc(OC)cc2)c2cc(OCCCO)ccc2N1C(=O)c1ccc2ccccc2n1 (some centres undefined) ?
Out: criterion not met

In: Same read-out for "COCCOC(=O)N1C(=O)[C@@]2(c3cc(C#CCC(C(=O)OC)C(=O)OC)ccc31)[C@H](C(N)=O)[C@H]1C(=O)O[C@H](c3ccccc3)[C@H](c3ccccc3)N1[C@@H]2c1ccc(O)cc1" ?
Out: criterion met

In: Same read-out for "CC(C)N1C(=O)C[C@@](C(=O)NCCN2CCOCC2)(c2ccc([N+](=O)[O-])cc2)[C@H]1c1ccc(CO)cc1" ?
Out: criterion not met

In: Same read-out for "CN(C)C(=O)[C@@]1(Cc2ccccc2CN=[N+]=[N-])COC(c2ccc(OCCCO)cc2)=N1" ?
Out: criterion not met

In: Same read-out for "O=C1N(CCS(=O)(=O)c2ccccc2)c2ccccc2C[C@]12N=C(c1ccc(OCCCO)cc1)O[C@@H]2c1ccccc1" ?
Out: criterion met

In: Same read-out for "COc1ccccc1CN1C(=O)c2ccccc2[C@](Cc2ccccc2I)(C(=O)NCC(C)C)[C@@H]1c1ccc(CO)cc1" ?
Out: criterion met

###

# z-score annotations
Test: FRG1 expression reporter modulators in myotubes – cell-based, C2C12 myotubes, firefly/Renilla luciferase, luminescence, FRG1 inhibition for FSHD, primary screen (AID 1084)
Conditions: FRG1 promoter luciferase, higher = more signal, called active from +8 up or from −8 down
Note: the reply should be a number with no unit written.

Examples with their reported z-score follow.
1) COC(=O)[C@H](Cc1ccccc1)N1CC2=CCCC=C[C@@H]2[C@H]1[C@H](O)Cc1ccccc1    0.569
2) COC(=O)[C@@]1(Cc2ccccc2)[C@H]2c3cc(C(=O)N(C)C)n(Cc4ccc(C(F)(F)F)nc4)c3C[C@H]2CN1C(=O)c1ccccc1    0.0597
3) CN1C(=O)C2C(C1=O)C1C=C(CCCO)C2C(C2CC2)N1Cc1cccc(OC(F)(F)F)c1 (stereo not given)    -0.688
4) O=C(NCc1ccc(F)cc1)[C@H]1C[C@H]2C(=O)N3CCC[C@H]3C(=O)N2[C@H]1c1ccc(O)cc1    -0.29
5) COC(=O)[C@@]1(Cc2ccccc2)N=C(c2ccc(OCCCO)cc2)O[C@H]1c1ccccc1CN=[N+]=[N-]    -2.6

In: Would you kindly share the measured z-score for "O=C1[C@H]2C=C(I)[C@H](C[C@@H]2c2ccccc2)[C@@]12CO2" ?
Out: 1.55

In: Same read-out for "COc1ccc([Si](C)(C)[C@H]2[C@H](CC(=O)N3Cc4ccccc4C[C@H]3CO)O[C@@]3(C(=O)N(C)c4c(Br)cc(C)cc43)[C@@H]2C)cc1" ?
Out: -4.4

In: Same read-out for "COCCOC(=O)N1C(=O)[C@@]2(c3cc(C#Cc4ccc(OC)cc4)ccc31)[C@H](c1ccc(OCCO)cc1)N1[C@H](c3ccccc3)[C@H](c3ccccc3)OC(=O)[C@H]1[C@@H]2C(=O)NC[C@H](O)c1ccccc1" ?
Out: 0.848

In: Same read-out for [N-]=[N+]=NCc1ccccc1[C@@H]1OC(c2ccc(OCCCO)cc2)=N[C@]1(Cc1ccccc1N=[N+]=[N-])C(=O)NCC(O)CO (stereo not given in full) ?
Out: 0.0407

In: Same read-out for CC(C)=CCCC=C(C)C(O)C1C=CC2C(=O)N(c3ccccc3)C(=O)C2N1Nc1ccc(C#N)cc1 (stereo not given) ?
Out: -1.36

In: Same read-out for "CN1C(=O)[C@@H]2[C@@H](CC(COc3ccccc3)=C3[C@@H](CCc4ccccc4)OB(O)C[C@@H]32)C1=O" ?
Out: -0.799

In: Same read-out for "COc1ccc(C#Cc2ccc3c(c2)[C@]2(C(=O)N3)[C@H](C(=O)O)[C@H]3C(=O)O[C@H](c4ccccc4)[C@H](c4ccccc4)N3[C@@H]2c2ccccc2OCCO)cc1" ?
Out: 0.205

In: Same read-out for O=C1NC(=O)C2C1C=CC(C(O)c1ccc([N+](=O)[O-])cc1)N2Nc1ccccn1 (stereo not given) ?
Out: 0.484

In: Same read-out for CC1CC/C=C\[C@H]2OC34C=CCN(c5ccc6ccccc6c5)C(=O)[C@H]3N(C(C)CO)C(=O)[C@@H]4C2C(=O)O1 (stereo not given in full) ?
Out: 1.14

In: Same read-out for "CCCCCCc1nc(Cc2cc(OC)c(OC)c(OC)c2)cc2c1[Si](C(C)C)(C(C)C)O[C@H]2c1ccccc1" ?
Out: -0.361

###

Target: Carbonic anhydrase 2 (Homo sapiens)
Experiment: compounds binding carbonic anhydrase 2 – biochemical, small-molecule microarray, Alexa647-labelled CAII, profiling panel (AID 1122)
Conditions: CAII-A647 binding fluorescence, higher = more signal
Mark t for reported composite z-score of 0.5 or greater; mark f for anything smaller.

In: Confirm if composite z-score reported for the compound CC(C)(C)N1CC=CC23O[C@@H]4/C=C\CCCOC(=O)C4[C@H]2C(=O)N(CCCCCO)[C@@H]3C1=O (some centres undefined) is 0.5 or above.
Out: t

In: Same read-out for COc1cc(C(O)C2C=CC3C(=O)N(c4ccccc4)C(=O)C3N2Nc2ccccc2F)cc(OC)c1OC (centres undefined) ?
Out: t

###

Test: change in splice reporter luminescence, either direction, cell-based, HEK293, spliceosome inhibition project, primary screen (AID 1101);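 further: HEK293 cells carrying a splicing-competent luciferase reporter gene; test concentration not given here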
Conditions: HEK293 splicing luciferase reporter, 24 h, called active from +8 up or from −8 down
Active and inactive are the calls of the source.
Pick one and only one: active, inactive

# count of solved cases: 5
1) CO[C@H]1O[C@H](CO)[C@@H](OC(=O)Nc2ccc3c(c2)OCO3)[C@H](OC(=O)Nc2ccccc2-c2ccccc2)[C@H]1OC(=O)Nc1ccccc1-c1ccccc1    inactive
2) CCCC=C(CCC)[C@@H](NC(=O)OCC(C)C)c1ccc(C(=O)OC)cc1    inactive
3) COC(=O)[C@@]1(Cc2ccccc2)N=C(c2ccc(OCCCO)cc2)O[C@H]1c1ccccc1CN=[N+]=[N-]    active
4) CC(C)=CCCC(C)=CC(O)C1C=CC2C(=O)NC(=O)C2N1Nc1ccc(Cl)cc1Cl (centres undefined)    inactive
5) CC(C)(C)N1CC=CC23O[C@@H]4/C=C\CCCOC(=O)C4[C@H]2C(=O)N(CCCO)[C@@H]3C1=O (some centres undefined)    inactive

In: Per the records of this test, what outcome belongs to C=CCC(OC(C)=O)[C@@H]1[C@@H](N(Cc2cccc3ccccc23)C(=O)c2ccc(-c3ccccc3)cc2)c2cc(OCCCO)ccc2N1C(=O)Cc1ccc2ccccc2c1 (some centres undefined) ?
Out: inactive

In: Same read-out for "CCOC(=O)C[C@H]1[C@H](OC(=O)c2cc3ccccc3oc2=O)[C@@H](NC(=O)CC(C)C)c2cc(OCCCO)ccc2N1C(=O)Cc1ccc(OC)cc1" ?
Out: inactive
